Hello, the source for this data is patent USRE46943E1, in case you need it.

The reader will find reported melting point values listed item by item below.

Consider the molecule shown here: COc1ccnc(-c2nc3ccc(-c4nc5ccc(N6CCN(C)CC6)cc5[nH]4)cc3[nH]2)c1 [Example 11] What is its recorded melting point?
190 °C (dec.)

Consider the molecule shown here: c1ccc2cc(-c3nc4ccc(-c5nc6ccc(N7CCOCC7)cc6[nH]5)cc4[nH]3)ncc2c1 [Example 20] What is its recorded melting point?
202 °C (dec.)

Consider the molecule shown here: CN1CCN(c2ccc3nc(-c4ccc5nc(-c6ncccc6C(F)(F)F)[nH]c5c4)[nH]c3c2)CC1 [Example 4] What is its recorded melting point?
189 to 191 °C

###

MEASURE: melting point

Consider the compound shown here: CN1CCN(c2ccc3nc(-c4ccc5cc(-c6ccccn6)[nH]c5c4)[nH]c3c2)CC1 What is its recorded melting point?
245 to 247 °C

Consider the compound shown here: CN1CCN(c2ccc3nc(-c4ccc5nc(-c6ccc(C(F)(F)F)cn6)[nH]c5c4)[nH]c3c2)CC1 What is its recorded melting point?
320 °C (dec.)

Consider the compound shown here: Cc1ccc(-c2nc3ccc(-c4nc5ccc(N6CCN(C)CC6)cc5[nH]4)cc3[nH]2)nc1 What is its recorded melting point?
200 to 204 °C

Consider the compound shown here: CNc1ccnc(-c2nc3ccc(-c4nc5ccc(N6CCN(C)CC6)cc5[nH]4)cc3[nH]2)c1 What is its recorded melting point?
220 °C (dec.)

Consider the compound shown here: CN1CCN(c2ccc3nc(-c4ccc5nc(-c6ccc[nH]c6=O)[nH]c5c4)[nH]c3c2)CC1 What is its recorded melting point?
244 to 248 °C

###

The reader will find reported PF (protection factor = Sm/So) values listed item by item below.
System: transformed human keratinocyte cell line (FEP 1811)
METHOD_SUMMARY: Clonogenic survival cell culture assay for radioprotective activity (12 Gy 137Cs gamma irradiation)
Type: cell-based
CONDITIONS: 12 Gy; survival at maximum protection vs irradiation only
API doc: respond with a numeric literal and nothing else, no unit.

Consider the compound shown here: COc1cc(-c2nc3cc(N4CCN(C)CC4)ccc3[nH]2)cc2nc(-c3ccccn3)[nH]c12 What is its recorded PF (protection factor = Sm/So)?
13.3

Consider the compound shown here: CN(C)C(=O)N1CCN(c2ccc3[nH]c(-c4ccc5[nH]c(-c6ccccn6)nc5c4)nc3c2)CC1 What is its recorded PF (protection factor = Sm/So)?
34.6

Consider the compound shown here: CN1CCN(c2ccc3nc(-c4ccc5nc(-c6cnccn6)[nH]c5c4)[nH]c3c2)CC1 What is its recorded PF (protection factor = Sm/So)?
6.5

Consider the compound shown here: CN1CCN(c2ccc3nc(-c4ccc5nc(-c6cc(N(C)C)ccn6)[nH]c5c4)[nH]c3c2)CC1 What is its recorded PF (protection factor = Sm/So)?
10.1

Consider the compound shown here: c1ccc(-c2nc3ccc(-c4nc5ccc(N6CCOCC6)cc5[nH]4)cc3[nH]2)nc1 What is its recorded PF (protection factor = Sm/So)?
69.6

Consider the compound shown here: COc1ccnc(-c2nc3ccc(-c4nc5ccc(N6CCN(C)CC6)cc5[nH]4)cc3[nH]2)c1 What is its recorded PF (protection factor = Sm/So)?
51.4

Consider the compound shown here: COc1cc2nc(-c3ccccn3)[nH]c2cc1-c1nc2ccc(N3CCN(C)CC3)cc2[nH]1 What is its recorded PF (protection factor = Sm/So)?
23.6

Consider the compound shown here: OCCN1CCN(c2ccc3nc(-c4ccc5nc(-c6ccccn6)[nH]c5c4)[nH]c3c2)CC1 What is its recorded PF (protection factor = Sm/So)?
19.6
